Experiment: Metabolic stability of pooled human liver microsomes
Type: in vitro ADME
Details: After 15 min; 0.3 μM compound, 0.2 mg/mL microsomes, 37° C., NADPH
QUANTITY: Residual rate of unchanged substance (%)
Return type: number; implicit unit %.

| MOLECULE | Residual rate of unchanged substance (%) |
| --- | --- |
| Nc1ccc(C(=O)NCc2ccc(Cc3cc4c(s3)COC4)cc2)c(N)n1 [Reference Example 1] | 83.6 |
| Cc1nc(N)c(C(=O)NCc2ccc(COc3ccccn3)cc2)nc1C [Comparative Example 2, reference compound] | 73.0 |
| Cc1cc(C(=O)NCc2ccc(OCc3ccccc3)cc2)c(N)nc1C [Comparative Example 3, reference compound] | 65.0 |

Form field: reported Residual rate of unchanged substance (%) of Cc1cc(Cc2ccc(CNC(=O)c3ccc(N)nc3N)cc2)sc1C [Comparative Example 1, reference compound]
93.1

Form field: reported Residual rate of unchanged substance (%) of Nc1nc2c(nc1C(=O)NCc1ccc(COc3ccccn3)cc1)COC2 [Reference Example 2]
87.0

Form field: reported Residual rate of unchanged substance (%) of Nc1nc2c(cc1C(=O)NCc1ccc(OCc3ccccc3)cc1)COC2 [Reference Example 3]
78.0
